The measurements presented in this section are drawn from ChEMBL document CHEMBL1201862.

- System: CCRF-CEM
- ASSAY METHOD TEXT: NCI tumour cell line growth inhibition, 48 h
Active and inactive are the calls of the source. Rule as the data show it: active = GI50 up to about 1.1 µM and inactive = higher.
Possible outcomes: class 1 (active), class 0 (inactive)

* NC(=O)C(=CNC(=S)Nc1ccc(Cl)c(Cl)c1)C(N)=O | class 0
* C=C1[C@@H]2CCC(C)(C)[C@H]1CCC(=O)[C@@H]2C(=O)OC | class 0
* O=C(c1nc2ccc(Cl)cc2nc1O)C(O)c1ccccc1 (configuration not stated) | class 0
* Nc1cc(CO)cc(Nc2c3ccccc3nc3occc23)c1 | class 0
* CN1CCN(Cn2nc(-c3ccccc3)n(/N=C/c3ccc(-c4ccc(Cl)cc4Cl)o3)c2=S)CC1 | class 0
* Cc1cc(=O)n(-c2ccccc2C)c(C)n1 | class 0
* Cc1c2oc3c(C)cnc(C(=O)NC4C(=O)NC(C(C)C)C(=O)N5CCCC5C(=O)N(C)CC(=O)N(C)C(C(C)C)C(=O)OC4C)c3nc-2c(C(=O)NC2C(=O)NC(C(C)C)C(=O)N3CCCC3C(=O)N(C)CC(=O)N(C)C(C(C)C)C(=O)OC2C)c(N)c1=O (configuration not stated) | class 1
* CCc1cccc(C)c1NC(C)=O | class 0
* COC(=O)C(C/C=C(\C)c1ccc(Cl)cc1)C(C)=O (configuration not stated) | class 0
* O=C1c2ccccc2-c2c1c1ccccc1c(=O)n2-c1cccnc1 | class 0
* O=C1C2CCCCC2C(=O)N1n1c(Cc2ccc(Cl)cc2)n[nH]c1=O (configuration not stated) | class 0
* CC(=O)OCC1OC(n2c(C)c(C(C)=O)c(-c3cccc4ccccc34)c(C#N)c2=S)C(OC(C)=O)C(OC(C)=O)C1OC(C)=O (configuration not stated) | class 0
* COC(=O)C1=C(C(=O)OC)C(C(=O)OC)C(C(=O)OC)C(C(=O)OC)(C(=O)OC)C(C(=O)OC)=C1C(=O)OC (configuration not stated) | class 0
* COc1cc2c(cc1O)C1Cc3ccc(OC)c(O)c3C[N+]1(C)CC2 (configuration not stated) | class 0
* C/C(CC(=O)Nc1ccc(C)cc1C)=N/N=C(N)N | class 0
* COc1ccc(NC(=O)CC(=O)N2N=C(N(CCC#N)c3ccccc3Cl)CC2c2ccccc2)cc1 (configuration not stated) | class 0
* COC(=O)[C@@]12OC[C@]34C([C@@H](O)C1O)[C@@]1(C)CC(=O)C(OC(=O)CC(C)C(F)(F)F)=C(C)C1C[C@H]3OC(=O)[C@H](O)[C@H]42 (some centres not stated) | class 0
* OCC(O)COCn1cc(Cn2ncc3c(NCc4ccccc4)ncnc32)nn1 (configuration not stated) | class 0
* CC(C)[C@@H]1CC[C@@H](C)C[C@H]1OC(=O)c1c2n(c3ccccc13)C[C@H]1OC(C)(C)O[C@@H]21 | class 0
* CC12CCC([C@H](N3CCOCC3)/C1=N\OCCN1CCCC1)C2(C)C (some centres not stated) | class 0
* Cc1ccccc1C1OC(=O)c2ccccc21 (configuration not stated) | class 0
* N#CCOc1ccc(/C=C/C(=O)c2ccc(Cl)cc2)cc1 | class 0
* O=C(O)C1=Cc2cccc3cccc(c23)C1=O | class 0
* Cc1cccc2c1CC1(Cc3c(C)cccc3C1=O)C2=O | class 0
* C/C(=N\C1CCCCC1)c1ccccc1O | class 0
* CCN(CC)C(=O)Cn1c(C)cc2ccccc21 | class 0
* Nc1ncc(Sc2ccccc2C(=O)O)s1 | class 0
* O=C1c2cccc3cc4ccccc4c(c23)C(=O)N1CCCNCCNCCCN1C(=O)c2cccc3cc4ccccc4c(c23)C1=O | class 1
* CCc1ccc(Nc2ccc([N+](=O)[O-])cc2[N+](=O)[O-])cc1 | class 0
* COc1ccc(C(=O)/C=C/c2ccc(OCC(=O)N3CCN(c4ccccc4)CC3)cc2)cc1 | class 0
* CCOC(=O)NC(OCc1ccccc1)(C(=O)OC)C(F)(F)F (configuration not stated) | class 0
* N#CC1CCCCCCCCCCC(=O)N(CCCl)C1=O (configuration not stated) | class 0
* N#Cc1c(C#N)c(-c2ccccc2)n(-c2ccccc2)c1N | class 0
* Oc1ccc(Cl)cc1Sc1cc(Cl)ccc1O [FENTICLOR] | class 0
* CC1=Nc2ccccc2S(=O)(=O)N1 | class 0
* CC12CC(Br)(Br)C(=O)C3C1CCCC32 | class 0
* Cc1nnc2n1-c1ccccc1C(=S)N1CSCC21 (configuration not stated) | class 0
* NC(=O)N/N=C(/c1nc2ccc([N+](=O)[O-])cc2nc1O)C(O)c1ccco1 (configuration not stated) | class 0
* CN(C)CCCNc1c(C#N)[n+]([O-])c2cc(Cl)ccc2[n+]1[O-] | class 0
* CCOC(=O)/C(=C/c1cccc(C#N)c1)N(CC)CC | class 0
* COc1cc2c([C@@H](OC(=O)c3ccccc3)c3ccc4c(c3)OCO4)nccc2c(OC)c1OC | class 0
* O=C1C=CC2(C=C1)CCC(=O)O2 | class 0
